# experiment.description: Evaluation of conversion rate to active form in buffer solution (Experimental Example 1)
# Assay type: physicochemical
# particulars: pH6.5, 2 hr, 37° C., 25 umol/L in buffer solution
# Protocol: For Examples 1 to 16 and Comparative Examples 1 to 14, the attrition rate of the test compound and the conversion rate of the test compound to Alvocidib in a buffer solution were calculated by the following method. Examples 1 to 16 and Comparative Examples 1 to 14 were each left in buffer solutions adjusted to pH 5.0, 5.5, 6.0, 6.5, 7.0 and 7.4, respectively, at a concentration of 25 umol/L at 37° C. […]
Tag: MET if measured Residual rate is not below 60%, NOT MET if it is.

CN1CC[C@H](c2c(OC(=O)N(CCF)CC3CCCCN3)cc(O)c3c(=O)cc(-c4ccccc4Cl)oc23)[C@H](O)C1 (stereo partly drawn) [Example 11]: NOT MET
CCCN(CC1CCCCN1)C(=O)Oc1cc(O)c2c(=O)cc(-c3ccccc3Cl)oc2c1[C@H]1CCN(C)C[C@H]1O (stereo partly drawn) [Example 9]: MET
CCN(C[C@@H]1CCCCN1)C(=O)Oc1cc(O)c2c(=O)cc(-c3ccccc3Cl)oc2c1[C@H]1CCN(C)C[C@H]1O [Example 1, ditrifluoroacetate]: MET

Prompt line: Could you please find out whether CCCN(C[C@H]1CCCCN1)C(=O)Oc1cc(O)c2c(=O)cc(-c3ccccc3Cl)oc2c1[C@H]1CCN(C)C[C@H]1O [Example 6] has Residual rate that meets 60% or exceeds it?
Response line: NOT MET

Prompt line: Could you please find out whether CCNC(=O)Oc1cc(O)c2c(=O)cc(-c3ccccc3Cl)oc2c1[C@H]1CCN(C)C[C@H]1O [Comparative Example 1, reference compound] has Residual rate that meets 60% or exceeds it?
Response line: NOT MET

Prompt line: Could you please find out whether CN1CC[C@H](c2c(OC(=O)N(C)C[C@@H]3CCCCN3)cc(O)c3c(=O)cc(-c4ccccc4Cl)oc23)[C@H](O)C1 [Example 3] has Residual rate that meets 60% or exceeds it?
Response line: MET
